Tested on: SK-MEL-2
Assay: NCI tumour cell line growth inhibition, 48 h
Activity calls are given as the source filed them. Cut-off read from the data, not from the text of the source: active = GI50 up to about 1.1 µM and inactive = higher.
Respond using exactly one of the listed classes: 1 = active, 0 = inactive

Example entries begin here.
>>> class_assignment("COc1ccc(N(C)CN(C)c2nc(N(C)C)nc(N(C)C)n2)cc1")
0
>>> class_assignment("Clc1ncnc2c1nc(C#Cc1ccccc1)n2C1CCCCO1 (stereo unspecified)")
0
>>> class_assignment("COC1=CC(=O)C2C(C1=O)[C@@H]1c3ccccc3C[C@H]21 (stereo partly specified)")
0
>>> class_assignment("O[C@H]1[C@H]2[C@H](O)C[C@H](CCOCc3ccccc3)CN2C[C@H]1O")
0
>>> class_assignment("CC(C)=CCC/C(C)=C/CO [GERANIOL]")
0

IN: Called result for CC(=O)N1c2ccccc2C23CCN(C)CC4C(C)OCC(C4CC2=O)C13 (stereo unspecified)
OUT: 0

IN: So what was the verdict on CSc1nc(SC)c2c(C)cn(C3OC(C)C(O)C(O)C3O)c2n1 (stereo unspecified) in this test?
OUT: 0

IN: What did this assay record as the result for O=S(=O)(O)c1ccc2c(/N=N/c3cccc4ccccc34)c(O)ccc2c1 ?
OUT: 0

IN: Query: recorded result category for Cc1cc(C(=O)NCCN(C)C)c2nc3ccccc3cc2c1 in this test
OUT: 0

IN: So what was the verdict on CCc1nnc(S)n1/N=C/c1ccc(-c2ccc([N+](=O)[O-])cc2)o1 in this test?
OUT: 0

IN: Can you look up the reported call for O=c1/c(=C/c2ccccc2[N+](=O)[O-])sc2nnc(-c3ccco3)n12 for me?
OUT: 0

IN: Name the outcome recorded for CCOC(=O)c1ccc2nc(NC(=O)COC(=O)CSc3nc(C)cc(C)n3)sc2c1 in the assay.
OUT: 0

====

Tested on: HL-60
Assay: NCI tumour cell line growth inhibition, 48 h
The source made the active and inactive calls. Cut-off read from the data, not from the text of the source: active = GI50 up to about 1.1 µM and inactive = higher.
RECORDED_ENDPOINT: GI50

>>> meas_value("O=c1cc(-c2ccccc2)oc2cc(OCC(O)COc3ccc4c(=O)cc(-c5ccccc5)oc4c3)ccc12")
"23 µM (inactive)"

Look up GI50 for the entries below, preserving their order.
1. COc1ccc(Br)c(N/N=C2\CCCNC2=O)c1
2. CCCCC1Cc2ccccc2-c2n1c1ccccc1[n+]2C (stereo not given)
3. CCN(CC)c1cccc2c1/C(=N/O)CCCC2
4. CO[C@]1(c2ccc([N+](=O)[O-])cc2)Oc2ccccc2C(=O)[C@@]1(Nc1ccc(C=O)cc1)OC
5. COc1ccc(/C=C/C(=O)c2sc(NC(=S)NC(=O)c3ccccc3F)nc2C)cc1OC

OUT:
1. 68.5 µM (inactive)
2. 3.99 µM (inactive)
3. > 100 µM (inactive)
4. > 10 µM (inactive)
5. 46.2 µM (inactive)

====

Test system: ACHN
Assay: NCI tumour cell line growth inhibition, 48 h
Calls of active or inactive are those of the source. Cut-off read from the data, not from the text of the source: active = GI50 up to about 1.1 µM and inactive = higher.
RECORDED_ENDPOINT: GI50

>>> meas_value("Cc1cc(S(=O)(=O)Nc2nnc3cc(C(F)(F)F)cc(C)n23)c(S)cc1Cl")
"> 100 µM (inactive)"
>>> meas_value("COC(=O)C1=C(C(=O)OC)C2(C)Nc3ccccc3C2=C(c2ccccc2)C1 (stereo unspecified)")
"22.1 µM (inactive)"
>>> meas_value("COc1ccc2c(c1)/C(=C\\c1c(Cl)nc3sc(C)cn13)C(=O)N2")
"6.95 µM (inactive)"
>>> meas_value("CC1=CC(C)C(C)N(CC2=NCCN2)c2ccccc21 (stereo unspecified)")
"97.9 µM (inactive)"
>>> meas_value("CCn1c(=O)c2cn[nH]c2n(C)c1=O")
"> 100 µM (inactive)"

Please look at the items below and tell me GI50 for each one, in order.
1. COC(=O)c1ccc(C)cc1C1CN=NC12Cc1cccc(C)c1C2=O (stereo unspecified)
2. c1ccc(C(CCN2CCCC2)c2ccccn2)cc1 (stereo unspecified)
3. O=C1c2ccccc2NC(=O)C2C1C(c1ccccc1)CC2(O)c1ccccc1 (stereo unspecified)
4. COCCOc1cc(C)cc(/C=C(C)/C=C/C2=C(C)CCCC2(C)C)n1
5. CCCCC1Cc2ccccc2-c2n1c1ccccc1[n+]2C (stereo unspecified)
6. COc1ccc(N(C)CN(C)c2nc(N(C)C)nc(N(C)C)n2)cc1

OUT:
["38.3 µM (inactive)", "> 100 µM (inactive)", "37 µM (inactive)", "84.3 µM (inactive)", "37.9 µM (inactive)", "> 100 µM (inactive)"]
